System: RARb:RXRa (NR concentration 270 nM, RXRa partner concentration 90 nM)
Protocol description: PBM binding z-score (relative to random genomic background probes); higher = stronger binding; sequences stand for … in GC…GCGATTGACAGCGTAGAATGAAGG
Measured property: PBM binding z-score
Please give the numeric answer without any surrounding text.

Check out these entries, answers already filled in.
CGTCCAAGGTCAGAGAAGTCAGTGAATGCCGAGT: 4.68
TCTCGGAGGACACGAAAGGTAAGAGCTCGACATC: 1.59
GCAGACAGGCGAAACGCAGGTAACTCAGGGTGGC: -0.55
GCAGCCAGGTGAAACGCAGGTAACTCAGGGTGGC: 0.362
ATTGAAAGGTCGAGGTGAGTATAGAGAAAGGGAA: 4.28

stdin: Provide one value: measured PBM binding z-score of GATACAGGGTCTGCTAGAGGCCAGAGTATGGAAA
stdout: 0.305

stdin: Provide one value: measured PBM binding z-score of GTACGAAGGTGAATAGGTCGTTGATGAGTAGGCG
stdout: 2.01

stdin: Provide one value: measured PBM binding z-score of CCAGACAGGTGAAAGGTAACTGAGTCTGGTACGC
stdout: 1.28

----------
System: RARa:RXR (NR concentration 270 nM, RXRa partner concentration 90 nM)
Protocol description: PBM binding z-score (relative to random genomic background probes); higher = stronger binding; sequences stand for … in GC…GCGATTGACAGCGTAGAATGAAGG
Measured property: PBM binding z-score
Please give the numeric answer without any surrounding text.

AGTCAAAGTTCATCTAGGTAAGGTAAGATATGCT: 3.9
TCGAGTAGGTTTGGGGCATTCAGAATGGCGTCGA: -0.156
CCTTACGGGTCACTCCAGGTTATAGAATCGGAGT: 4.11
AGAATGAGGTTATTAGGATCAGGGAATTGCGGTC: 1.57
CCTACTGGGCCAAGGGTCATTGATTCCAATGCTC: 3.87

# context switch: different sequence, same PBM binding z-score
stdin: // fetch PBM binding z-score; item: CCTACTGGGCCATTCAGTGGTCATTGATCATATG ; system: RARa:RXR (NR concentration 270 nM, RXRa partner concentration 90 nM)
stdout: -0.725

----------
System: PPARg:RXRa (NR concentration 180 nM, RXRa partner concentration 90 nM)
Protocol description: PBM binding z-score (relative to random genomic background probes); higher = stronger binding; sequences stand for … in GC…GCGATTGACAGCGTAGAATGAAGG
Parameter threshold = 1. Response is met when PBM binding z-score meets or exceeds it, else not met.

Worked set:
TCGAGTAGGATACCAATGGGGCATTCAGCTTTCT: not met
CCTACTGGGCCAAGGTCGTTGATCAGTCAAAGCA: met
TCTATTAGGTGAAGGGCAACCGACGAGTCCGTTT: met
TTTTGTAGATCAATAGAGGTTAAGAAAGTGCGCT: not met
AGAATGAGGTTATTAAGATCACGGAATTGCGGTC: met

stdin: Check if PBM binding z-score >= 1 (inclusive). Item: CAGCCTAGGTCAGGGCCAGTAAAGGAGGAACGTT
stdout: not met

stdin: Check if PBM binding z-score >= 1 (inclusive). Item: CATACAGGGTTAGCTAGGCCAGAGTAGGGACGGC
stdout: not met

stdin: Check if PBM binding z-score >= 1 (inclusive). Item: TCATATAGGTAAACCGGTGAAAGTCCGTAAGTTA
stdout: met

stdin: Check if PBM binding z-score >= 1 (inclusive). Item: CCTACTGGGCCAAAGTTCATTGATTCCAATGCTC
stdout: met

stdin: Check if PBM binding z-score >= 1 (inclusive). Item: CGTCCAAGGTCAAGGTTAGTGAAAGAGACTCGAA
stdout: met

stdin: Check if PBM binding z-score >= 1 (inclusive). Item: GGAACGAGGGCAAGTTCATAGCAGAGTTTGATGG
stdout: met

stdin: Check if PBM binding z-score >= 1 (inclusive). Item: ATCTCTAGGGAACCAAGTTCAGTGAATGCCGAAC
stdout: not met

----------
Test system: LXRb homodimer (NR concentration 270 nM)
Protocol description: PBM binding z-score (relative to random genomic background probes); higher = stronger binding; sequences stand for … in GC…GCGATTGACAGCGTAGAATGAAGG
Measured property: PBM binding z-score
Please give the numeric answer without any surrounding text.

Check out these entries, answers already filled in.
ACAGACTGGTGATGAAGGTAACTCAGGCTATCAT: -0.582
TGAATGAGATTAAAGATCAGGGAACGTGGCGTCG: -0.389
CGTCCAAGGTCATAGGAGGGCAGTGAAGACAGAT: 0.284
AGAATGTGGTTATTAAGATCAGGGAATTGCGGTC: 0.111

stdin: Provide one value: measured PBM binding z-score of GTACCAAGGTTAATAGGTCGTTGATGAGTAGGCG
stdout: -0.213

stdin: Provide one value: measured PBM binding z-score of TCTATTAGTTGAAGGGCAGCCGACGAGTCCGTTT
stdout: 0.323

----------
System: PPARg homodimer (NR concentration 180 nM)
Protocol description: PBM binding z-score (relative to random genomic background probes); higher = stronger binding; sequences stand for … in GC…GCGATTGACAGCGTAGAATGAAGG
Parameter threshold = 1. Response is Fulfilled when PBM binding z-score meets or exceeds it, else Not fulfilled.

ATCGAAAGGTCGAAGGTGAATATACCCACCCGAA: Fulfilled
GCTAGCAGGCCATTTGGCTCACTCAATGACGGGC: Not fulfilled
GGAACGAGGGCTAAGTTGATAGCATCTGTCGACG: Not fulfilled
GCATATAGGTAAAACAAGGTGAAAGTCCGATTGT: Not fulfilled
TCGAGTAGGTTACGGGCATTCAGAATGGCGTCGA: Not fulfilled

--- query ---
stdin: Check if PBM binding z-score >= 1 (inclusive). Item: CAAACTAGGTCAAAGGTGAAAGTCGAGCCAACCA
stdout: Fulfilled

----------
Recorded PBM binding z-score for the following sequences
Tested on: FXR:RXRa (NR concentration 270 nM, RXRa partner concentration 90 nM)
Protocol description: PBM binding z-score (relative to random genomic background probes); higher = stronger binding; sequences stand for … in GC…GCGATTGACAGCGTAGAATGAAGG
Please give the numeric answer without any surrounding text.

Check out these entries, answers already filled in.
TAGCCTAGGTTATTCAGGGGCCAGTATAGAAAGC: 0.502
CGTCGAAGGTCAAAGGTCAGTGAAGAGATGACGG: 8.44
CGTCAAAGTGCAACTAAGGTAACGTAAAGCACGC: 0.888
GATACAGGGTCAAGGCCAGAGGACGCGTATTGAT: 6.78
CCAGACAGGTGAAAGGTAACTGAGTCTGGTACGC: 0.744

stdin: Provide one value: measured PBM binding z-score of TCTAGGTGGTCACGGAGGTCACACACGACGGGTA
stdout: 3.81

stdin: Provide one value: measured PBM binding z-score of TCTGGGAGGACACGAAGGTCAGAGCTTTCCAGAG
stdout: 1.36

stdin: Provide one value: measured PBM binding z-score of AGAATGAGGTAATTAAGATCAGGGAATTGCGGTC
stdout: 0.0653

stdin: Provide one value: measured PBM binding z-score of CGAACTAGGTCAGAACAGGACAGTGAGGGATGAT
stdout: 1.59

stdin: Provide one value: measured PBM binding z-score of AGTCAAAGTTCACTAGGTAACGTATGATTCAGCT
stdout: 4.96

----------
Recorded PBM binding z-score for the following sequences
Test system: RARa homodimer (NR concentration 270 nM)
Protocol description: PBM binding z-score (relative to random genomic background probes); higher = stronger binding; sequences stand for … in GC…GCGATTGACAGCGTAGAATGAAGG
Please give the numeric answer without any surrounding text.

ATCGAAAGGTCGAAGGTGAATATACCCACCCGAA: 0.699
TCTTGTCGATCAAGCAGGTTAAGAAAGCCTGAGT: -0.429

stdin: Provide one value: measured PBM binding z-score of AGAATGAGGTTACCAAAGATCAGGGACACGCTTG
stdout: 0.459

stdin: Provide one value: measured PBM binding z-score of AGTCAAAGTTCATCTAGGTAACGTACGATATGCT
stdout: 1.06

stdin: Provide one value: measured PBM binding z-score of TAGCCTAGGCCAGATCGGGCCAGTATACGCTATA
stdout: -1.1

stdin: Provide one value: measured PBM binding z-score of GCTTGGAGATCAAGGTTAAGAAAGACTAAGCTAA
stdout: -0.305

----------
Recorded PBM binding z-score for the following sequences
Tested on: RARa:RXR (NR concentration 270 nM, RXRa partner concentration 90 nM)
Protocol description: PBM binding z-score (relative to random genomic background probes); higher = stronger binding; sequences stand for … in GC…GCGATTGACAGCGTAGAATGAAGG
Please give the numeric answer without any surrounding text.

TCTAGTTGGTCAACGGTCACACACTCGAAATGCG: 0.78
ATCTCGAGGTAACAAGTTCAGTGAAAGAGAGGAC: 1.3
GGAACGAGGGCAACGTTGATAGCATCTGTCGACG: 0.65

stdin: // fetch PBM binding z-score; item: ACTATTAGTTGAGACGCGGGCAACCGATAGGTTG ; system: RARa:RXR (NR concentration 270 nM, RXRa partner concentration 90 nM)
stdout: -0.588

stdin: // fetch PBM binding z-score; item: CCTATTAGTTGACCATAAGGGCTACCGAAGCTCG ; system: RARa:RXR (NR concentration 270 nM, RXRa partner concentration 90 nM)
stdout: 0.373

stdin: // fetch PBM binding z-score; item: GCAAGTTGGTCAGTAAAAGGTCACACACCGGTCG ; system: RARa:RXR (NR concentration 270 nM, RXRa partner concentration 90 nM)
stdout: 5.84

stdin: // fetch PBM binding z-score; item: ACAGACAGGTGAGTGACGGTAACTCAGCTGGACG ; system: RARa:RXR (NR concentration 270 nM, RXRa partner concentration 90 nM)
stdout: -0.525

stdin: // fetch PBM binding z-score; item: CTCGAAAGATCGTGCTCAGGTGAGTATACCAAAC ; system: RARa:RXR (NR concentration 270 nM, RXRa partner concentration 90 nM)
stdout: -0.00355

stdin: // fetch PBM binding z-score; item: GGAACGAGGGCATTCGACTTGATAGCATGGCGAT ; system: RARa:RXR (NR concentration 270 nM, RXRa partner concentration 90 nM)
stdout: -0.119

stdin: // fetch PBM binding z-score; item: CCTTACGGGTCACGAGGTTATAACACGACGAGCG ; system: RARa:RXR (NR concentration 270 nM, RXRa partner concentration 90 nM)
stdout: 5.6
